From: patent US20250154277A1

Target: T1, human 5T4-His protein (human, UniProt Q13641 32-355)
T1 construct: also called recombinant 5T4 protein (human 5T4-his tag); human 5T4 protein; not shown: His tag
T1 sequence (looked up): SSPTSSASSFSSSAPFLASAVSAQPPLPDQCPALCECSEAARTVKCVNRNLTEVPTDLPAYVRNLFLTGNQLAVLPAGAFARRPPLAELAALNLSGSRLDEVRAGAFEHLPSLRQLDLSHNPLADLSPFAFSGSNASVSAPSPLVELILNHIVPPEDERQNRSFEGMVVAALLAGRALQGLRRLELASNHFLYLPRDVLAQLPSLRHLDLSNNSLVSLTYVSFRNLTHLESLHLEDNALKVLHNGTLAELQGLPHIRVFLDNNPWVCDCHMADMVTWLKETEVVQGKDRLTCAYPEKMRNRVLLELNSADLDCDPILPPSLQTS
Assay: SPR Biacore, Protein A capture, 50 nM 5T4-His
experimental_endpoint: Kd
The number alone won't do; follow it with the unit.

binder	observed
Hu159D5-6 (antibody, V domains shown, humanized) VH: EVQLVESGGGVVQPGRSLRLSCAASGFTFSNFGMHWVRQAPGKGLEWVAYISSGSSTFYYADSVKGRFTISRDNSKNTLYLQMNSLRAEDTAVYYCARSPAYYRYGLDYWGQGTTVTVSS VL: DIVLTQSPDSLAVSLGERATINCRASQSVSSSTFSYMHWYQQKPGQPPKLLIKSSSNLESGVPDRFSGSGSGTDFTLTISSLQAEDVAVYYCQHSWEIPYTFGGGTKVEIK	710 pM

Item under review: 159D5-P1 (antibody, V domains shown, chimeric 159D5 with S62A (DS to DA) in VH CDR2; also called PTM removal antibody of 159D5-P1; 159D5-VH.S62A with 159D5 VL) VH: DVQLVESGGGLVQPGGSRKLSCTASGFTFSNFGMHWVRQAPETGLEWVAYISSGSSTFYYADAVKGRFTISRDNPKNTLFLQMTSLRSEDTAMYFCARSPAYYRYGLDYWGQGTTLTVSS VL: DIVLTQSPASLAVSLGQRATISCRASQSVSSSTFSYMHWYQQKPGQPPKLLIKSSSNLESGVPARFSGSGSGTDFTLNIHPVEEEDTATYYCQHSWEIPYTFGGGTKLEIK . Reported Kd?
489 pM

Query: Kd; subject: Hu159D5-2 (antibody, V domains shown, humanized) VH: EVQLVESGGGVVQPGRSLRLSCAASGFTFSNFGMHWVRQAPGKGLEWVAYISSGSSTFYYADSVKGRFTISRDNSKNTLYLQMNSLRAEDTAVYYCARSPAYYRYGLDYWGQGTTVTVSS VL: DIVMTQTPLSLSVTPGQPASISCRASQSVSSSTFSYMHWYQQKPGQPPQLLIKSSSNLESGVPDRFSGSGSGTDFTLKISRVEAEDVGVYYCQHSWEIPYTFGGGTKVEIK
789 pM
